Test: TLR3 IRF3 reporter activation blockers – cell-based, poly I:C stimulus, luciferase, 10K MLSCN set, primary screen (AID 602277)
Settings: HEK293-TLR3 RL24 IRF3 luciferase reporter, at 10 µM, stronger effect = higher value
Provide the reported inhibition of each item.
Write the number in % without appending the unit.

Value of measured inhibition for the entry COCCCNC(=O)C1CCN(C(=O)Nc2ccc(Cl)cc2)CC1 : 34.3

Value of measured inhibition for the entry Cn1c(CNc2nc(-c3ccccc3)cs2)nnc1SCC(=O)N1CCc2ccccc21 : 5.89

Value of measured inhibition for the entry COc1cccc(C2C(C(=O)c3ccc(C)o3)=C(O)C(=O)N2CCCN(C)C)c1 (stereo not given) : 15.6

Value of measured inhibition for the entry COc1ccccc1NC(=O)CSc1nnc(Cc2cccn2C)n1-c1ccc(F)cc1 : 37.8

Value of measured inhibition for the entry COc1ccc(S(=O)(=O)N2CN(Cc3ccco3)c3nc4ccccc4nc32)cc1 : 20

###

Target: Voltage-gated potassium channel subunit beta-2 (Rattus norvegicus) (UniProt P62483)
Sequence (P62483 whole entry, looked up): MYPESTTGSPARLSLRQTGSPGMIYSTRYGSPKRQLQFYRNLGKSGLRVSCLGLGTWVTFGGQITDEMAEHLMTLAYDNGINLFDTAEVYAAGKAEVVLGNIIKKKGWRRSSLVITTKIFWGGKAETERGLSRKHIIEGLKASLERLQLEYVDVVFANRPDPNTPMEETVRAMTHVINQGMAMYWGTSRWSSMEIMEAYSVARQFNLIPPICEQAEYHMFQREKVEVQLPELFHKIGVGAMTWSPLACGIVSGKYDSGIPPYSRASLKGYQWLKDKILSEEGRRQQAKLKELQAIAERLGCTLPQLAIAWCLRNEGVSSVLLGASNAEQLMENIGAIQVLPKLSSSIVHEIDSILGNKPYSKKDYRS
Experiment: inhibitors of rat Kvbeta2 reductase activity – biochemical, NADPH fluorescence, primary screen (AID 622);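 also: slope of raw intensity against log time taken from 70 to 1610 s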
Details: recombinant KvBeta, 4-cyanobenzaldehyde reduction, at 10 µM, stronger effect = higher value
METRIC_NAME: fluorescence slope
Keep it simple and answer with nothing but the number.

Param item: CCCC(=O)OCCn1c(Br)nc2c1c(=O)[nH]c(=O)n2C ; param system: Voltage-gated potassium channel subunit beta-2 (Rattus norvegicus) (UniProt P62483); output fluorescence slope: -0.509

Param item: COc1ccc(N2CCN(Cc3cc(=O)oc4cc(C)c(Cl)c(C)c34)CC2)cc1 ; param system: Voltage-gated potassium channel subunit beta-2 (Rattus norvegicus) (UniProt P62483); output fluorescence slope: -0.388

Param item: CC(O)c1c(OCc2ccccc2)ncnc1OCc1ccccc1 (stereo unspecified) ; param system: Voltage-gated potassium channel subunit beta-2 (Rattus norvegicus) (UniProt P62483); output fluorescence slope: -0.44

Param item: C=CC(O)(C#CCN(CC)CC)c1ccccc1 (stereo unspecified) ; param system: Voltage-gated potassium channel subunit beta-2 (Rattus norvegicus) (UniProt P62483); output fluorescence slope: -0.596

Param item: Cc1cc(NC(=O)c2ccc3c(c2)C(=O)N(Cc2cccnc2)C3=O)no1 ; param system: Voltage-gated potassium channel subunit beta-2 (Rattus norvegicus) (UniProt P62483); output fluorescence slope: -0.615

Param item: CCS(=O)(=O)N1CCCC(C(=O)NCCc2ccc(OC)c(OC)c2)C1 (stereo unspecified) ; param system: Voltage-gated potassium channel subunit beta-2 (Rattus norvegicus) (UniProt P62483); output fluorescence slope: -0.43

###

Provide the reported nuclei count of each item.
Assay: endothelial E-selectin expression blockers – imaging, HUVEC, immunofluorescence, MLSMR starter and 10KST1 sets, primary screen (AID 487);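 also: 100% = median nuclei count of all wells on the same plate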
Conditions: HUVEC TNFalpha-induced E-selectin immunofluorescence imaging, at 2 µM; measured here: cell number, toxicity
Write the number in % without appending the unit.

Value of measured nuclei count for the entry O=C1CC(c2ccccc2)CC(O)=C1C=NCCN1CCOCC1 (centres undefined) : 99.1

Value of measured nuclei count for the entry CCCc1nnc(SCC(=O)N2CCOCC2)n1Cc1ccco1 : 101

Value of measured nuclei count for the entry Cc1nnc(SCC(=O)N2CCC(C(=O)Nc3nccs3)CC2)n1Cc1ccccc1 : 100

Value of measured nuclei count for the entry CCOC(=O)CSc1nnc(-c2ccc(NS(=O)(=O)c3ccc(C)cc3)cc2)o1 : 108

Value of measured nuclei count for the entry COc1cccc(CN2CCN(C(=O)CC(C)C)CC2)c1 : 132

Value of measured nuclei count for the entry Cn1c(=O)c2c(nc(SCC(=O)NCc3ccco3)n2C)n(C)c1=O : 100

Value of measured nuclei count for the entry COc1cc2c(=O)nc3n(c2cc1OC)C(c1ccccc1)N=C(N)N3 (centres undefined) : 98.2

Value of measured nuclei count for the entry N/C(=N/O)c1nc(N2CCCCC2)nc(N2CCCCC2)n1 : 81.9

Value of measured nuclei count for the entry [N-]=[N+]=CC(=O)CC(c1ccccc1)N1C(=O)c2ccccc2C1=O (centres undefined) : 115

Value of measured nuclei count for the entry COc1ccc(-n2c(=O)c3c4c(sc3n3cnnc23)CC(C)CC4)cc1 (centres undefined) : 116

Value of measured nuclei count for the entry CCCCS(=O)(=O)NC1=NCN(CCOC(=O)c2ccccc2)CN1 : 112

Value of measured nuclei count for the entry CC(NCc1ccco1)C(=O)N1CCc2ccccc2C1 (centres undefined) : 108

Value of measured nuclei count for the entry Cc1cc2oc(=O)cc(C)c2c(=O)o1 : 115

Value of measured nuclei count for the entry COCCCNC(=O)Cn1cc2c(n1)CCC(C)C2 (centres undefined) : 121

Value of measured nuclei count for the entry COc1ccccc1OCC(=O)Nc1cccc(-c2nc3ccccc3o2)c1 : 110

Value of measured nuclei count for the entry CCn1cc(S(=O)(=O)CC(=O)Nc2ccc(OC)cc2)c2ccccc21 : 115

Value of measured nuclei count for the entry CCCOc1ccc(OCCSc2ncccn2)cc1 : 108

Value of measured nuclei count for the entry N#Cc1cnc(SCCc2ccccc2)nc1N : 108

Value of measured nuclei count for the entry Cc1ccc(NC(=O)CSc2nnc(CNC(=O)c3c(F)cccc3Cl)o2)cc1 : 118

Value of measured nuclei count for the entry O=C(NCc1cccnc1)C1c2ccccc2C(=O)N1Cc1ccco1 (centres undefined) : 113

Value of measured nuclei count for the entry CCN1CCN(S(=O)(=O)Cc2ccccc2)CC1 : 106

Value of measured nuclei count for the entry COc1cc2c(cc1NCc1ccccn1)oc1ccccc12 : 90.6

Value of measured nuclei count for the entry CC(=O)Nc1ccc(S(=O)(=O)CCC#N)cc1 : 107

Value of measured nuclei count for the entry Cc1cccc(Cc2c(C)nc3nc(SCC(=O)NCc4ccco4)nn3c2C)c1 : 101
